The compounds listed here are annotated with their zinc finger reactivity / zinc ejection rate.
target: recombinant HIV-1 NCp7 protein (Human immunodeficiency virus type 1 group M subtype B, UniProt P03347); construct: within the nucleocapsid p7 (NCp7) protein portion of the polyprotein; experiment: Trp37 zinc finger fluorescence (zinc ejection) assay; assay type: biochemical
Answer with a number only, understood to be in RFU/min.

Please review the following examples before continuing.
>>> df
                                   compound  unit_info  reported
0  CC(=O)Nc1ccc(S(=O)(=O)c2ccc(NC(=O)c3ccccc3SSc3ccccc3C(=O)Nc3ccc(S(=O)(=O)c4ccc(NC(C)=O)cc4)cc3)cc2)cc1 [Compound 27D]    RFU/min       5.9
1  CC(=O)Nc1cccc(S(=O)(=O)c2cccc(NC(=O)c3ccccc3SSc3ccccc3C(=O)Nc3cccc(S(=O)(=O)c4cccc(NC(C)=O)c4)c3)c2)c1 [Compound 36]    RFU/min         2
2  Nc1cccc(S(=O)(=O)c2cccc(NC(=O)c3ccccc3SSc3ccccc3C(=O)Nc3cccc(S(=O)(=O)c4cccc(N)c4)c3)c2)c1 [Compound 35]    RFU/min      0.92
3  NS(=O)(=O)c1ccc(NC(=O)CNC(=O)c2ccccc2SSc2ccccc2C(=O)NCC(=O)Nc2ccc(S(N)(=O)=O)cc2)cc1 [Compound 25D]    RFU/min       7.9
4  CC(=O)NS(=O)(=O)c1ccc(NC(=O)c2ccccc2SC(=O)CCCC[n+]2ccccc2)cc1 [Compound 45]    RFU/min       3.6

Ask: Could you share which zinc finger reactivity / zinc ejection rate value was measured for Nc1ccc(S(=O)(=O)c2ccc(NC(=O)c3ccccc3SSc3ccccc3C(=O)Nc3ccc(S(=O)(=O)c4ccc(N)cc4)cc3)cc2)cc1 [Compound 26D] ?
Result: 3.3

Ask: Could you share which zinc finger reactivity / zinc ejection rate value was measured for NS(=O)(=O)c1ccc(CNC(=O)c2ccccc2SSc2ccccc2C(=O)NCc2ccc(S(N)(=O)=O)cc2)cc1 [Compound 23D] ?
Result: 3.3

Ask: Could you share which zinc finger reactivity / zinc ejection rate value was measured for O=C(CCCC[n+]1ccccc1)Sc1ccccc1C(=O)Nc1ccc(S(=O)(=O)c2ccc(NS(=O)(=O)Cc3ccccc3[N+](=O)[O-])cc2)cc1 [Compound 50] ?
Result: 0.86

Data origin: patent EP1087941B9
